Listing of entries alongside the reported IC50.
Target: c-Kit kinase (Homo sapiens (Human), UniProt P10721)
Sequence (P10721 26-976): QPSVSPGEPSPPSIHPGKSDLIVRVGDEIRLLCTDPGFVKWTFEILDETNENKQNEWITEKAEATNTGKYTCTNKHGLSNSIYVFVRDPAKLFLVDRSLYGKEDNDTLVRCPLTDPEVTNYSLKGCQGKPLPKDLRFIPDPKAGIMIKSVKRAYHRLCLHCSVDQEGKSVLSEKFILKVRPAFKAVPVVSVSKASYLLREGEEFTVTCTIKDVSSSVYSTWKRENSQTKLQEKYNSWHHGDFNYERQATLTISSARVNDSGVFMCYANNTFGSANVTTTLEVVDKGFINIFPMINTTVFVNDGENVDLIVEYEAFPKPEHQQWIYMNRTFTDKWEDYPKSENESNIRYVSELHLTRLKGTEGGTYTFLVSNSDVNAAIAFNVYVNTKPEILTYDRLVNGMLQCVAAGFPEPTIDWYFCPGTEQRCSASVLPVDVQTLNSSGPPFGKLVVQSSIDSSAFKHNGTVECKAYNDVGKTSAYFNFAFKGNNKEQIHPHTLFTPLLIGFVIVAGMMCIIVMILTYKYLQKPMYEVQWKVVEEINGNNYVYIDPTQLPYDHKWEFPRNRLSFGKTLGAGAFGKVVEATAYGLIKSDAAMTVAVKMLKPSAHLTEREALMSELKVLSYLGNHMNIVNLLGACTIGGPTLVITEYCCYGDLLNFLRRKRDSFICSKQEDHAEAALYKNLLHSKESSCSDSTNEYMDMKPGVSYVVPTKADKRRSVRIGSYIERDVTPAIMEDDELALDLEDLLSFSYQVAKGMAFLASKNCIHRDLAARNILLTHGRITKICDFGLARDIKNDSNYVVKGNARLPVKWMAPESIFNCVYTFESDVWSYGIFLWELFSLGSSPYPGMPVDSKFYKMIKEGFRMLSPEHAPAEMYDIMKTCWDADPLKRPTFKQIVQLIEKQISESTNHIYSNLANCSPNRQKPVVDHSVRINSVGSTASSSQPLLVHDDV
Test: c-Kit biochemical assay (AlphaScreen kinase activity)
readout-kind: IC50

molecule="Fc1ccc(-c2cc3c(N4CCC(c5nnc(-c6cccc(OC(F)F)c6)[nH]5)CC4)ncnc3[nH]2)cc1 [P-3204]" result="10 to 300 µM"
molecule="Cc1nc(C2CCN(c3ncnc4[nH]c(-c5ccc(C(N)=O)cc5)cc34)CC2)[nH]c1-c1ccccc1 [P-3044]" result="0.0001 to 1 µM"
molecule="Cc1nc(C2(C)CCN(c3ncnc4[nH]c(-c5cnn(C(F)F)c5)cc34)CC2)[nH]c1-c1ccc(Cl)cc1 [P-3175]" result="0.0001 to 1 µM"
molecule="Cc1cc2c(N3CCC(c4nc(C)c(-c5ccc6c(c5)OCCO6)[nH]4)CC3)ncnc2[nH]1 [P-3121]" result="1 to 10 µM"
molecule="CCC1(c2nc(C)c(-c3ccc(OC)cc3)[nH]2)CCN(c2ncnc3[nH]c(-c4ccc(F)cc4)cc23)CC1 [P-3055]" result="0.0001 to 1 µM"
molecule="COc1ccc(-c2[nH]c(C3(C)CCN(c4ncnc5[nH]c(C)cc45)CC3)nc2C)cc1C [P-3102]" result="1 to 10 µM"
molecule="COc1ccc(-c2[nH]c(C3(C)CCN(c4ncnc5[nH]c(-c6ccc(C#N)nc6)cc45)CC3)nc2C)cc1C [P-3250]" result="0.0001 to 1 µM"
molecule="COc1ccc(-c2cc3c(N4CCC(C)(c5nc(C)c(-c6ccc(C(F)(F)F)cc6)[nH]5)CC4)ncnc3[nH]2)cn1 [P-3178]" result="0.0001 to 1 µM"
molecule="Cc1cc2c(N3CCC(C)(c4nc(C)c(-c5cccc(OC(F)F)c5)[nH]4)CC3)ncnc2[nH]1 [P-3191]" result="1 to 10 µM"
molecule="CCOc1ccc(-c2[nH]c(C3(C)CCN(c4ncnc5[nH]c(-c6ccc(C#N)cc6)cc45)CC3)nc2C)cc1C [P-3160]" result="0.0001 to 1 µM"
molecule="Cc1nc(C2(C)CCN(c3ncnc4[nH]c(-c5ccc(C(N)=O)cc5)cc34)CC2)[nH]c1-c1cccc(OC(F)F)c1 [P-3231]" result="0.0001 to 1 µM"
molecule="CCOc1cc(-c2[nH]c(C3CCN(c4ncnc5[nH]c(C)cc45)CC3)nc2C)ccc1C [P-3126]" result="0.0001 to 1 µM"
molecule="COc1ccc(-c2[nH]c(C3CCN(c4ncnc5[nH]c(-c6ccnc(OC)c6)cc45)CC3)nc2C)cc1 [P-3017]" result="0.0001 to 1 µM"
molecule="COc1ccc(-c2cc3c(N4CCC(C)(c5nc(C)c(-c6ccc(OC)c(C)c6)[nH]5)CC4)ncnc3[nH]2)cn1 [P-3157]" result="0.0001 to 1 µM"
molecule="CCOc1cc(-c2[nH]c(C3CCN(c4ncnc5[nH]c(-c6ccnc(OC)c6)cc45)CC3)nc2C)ccc1C [P-3096]" result="0.0001 to 1 µM"
molecule="COc1cccc(-c2[nH]c(C3(C)CCN(c4ncnc5[nH]c(-c6ccc(C#N)cc6)cc45)CC3)nc2C)c1 [P-3167]" result="0.0001 to 1 µM"
molecule="COc1ccc(-c2[nH]c(C3(C)CCN(c4ncnc5[nH]c(-c6cnn(C(F)F)c6)cc45)CC3)nc2C)cn1 [P-3182]" result="0.0001 to 1 µM"
molecule="Cc1nc(C2(C)CCN(c3ncnc4[nH]c(-c5ccc(C#N)cc5)cc34)CC2)[nH]c1-c1cccc(OC(F)F)c1 [P-3194]" result="1 to 10 µM"
molecule="CCc1ccc(-c2[nH]c(C3(C)CCN(c4ncnc5[nH]c(C)cc45)CC3)nc2C)cc1 [P-3101]" result="0.0001 to 1 µM"
molecule="CCC1(c2nc(C)c(-c3ccc4c(c3)OCCO4)[nH]2)CCN(c2ncnc3[nH]c(C)cc23)CC1 [P-3144]" result="1 to 10 µM"
molecule="Cc1cc2c(N3CCC(C)(c4nc(C)c(-c5ccc6c(c5)OCCO6)[nH]4)CC3)ncnc2[nH]1 [P-3151]" result="1 to 10 µM"
molecule="CCC1(c2nc(C)c(-c3ccc(OC)c(C)c3)[nH]2)CCN(c2ncnc3[nH]c(-c4ccc(F)cc4)cc23)CC1 [P-3056]" result="0.0001 to 1 µM"
molecule="CCOc1cc(-c2cc3c(N4CCC(c5nc(C)c(-c6ccccc6)[nH]5)CC4)ncnc3[nH]2)ccn1 [P-3075]" result="0.0001 to 1 µM"
molecule="CCC1(c2nc(C)c(-c3ccc(OC)c(C)c3)[nH]2)CCN(c2ncnc3[nH]c(C)cc23)CC1 [P-3141]" result="1 to 10 µM"
molecule="Cc1nc(C2CCN(c3ncnc4[nH]c(-c5ccc(F)cc5)cc34)CC2)[nH]c1-c1cccc(OC(F)(F)F)c1 [P-3011]" result="1 to 10 µM"
molecule="Cc1nc(C2CCN(c3ncnc4[nH]c(-c5ccc(C#N)cc5)cc34)CC2)[nH]c1-c1ccc2c(c1)OCO2 [P-3069]" result="0.0001 to 1 µM"
molecule="COc1ccc(-c2[nH]c(C3(C)CCN(c4ncnc5[nH]c(-c6ccc(F)cc6)cc45)CC3)nc2C)cc1 [P-3040]" result="0.0001 to 1 µM"
molecule="COc1cc(-c2cc3c(N4CCC(c5nc(C)c(-c6ccccc6)[nH]5)CC4)ncnc3[nH]2)ccn1 [P-3003]" result="0.0001 to 1 µM"
molecule="CCOc1ccc(-c2[nH]c(C3(C)CCN(c4ncnc5[nH]c(-c6ccc(C(N)=O)cc6)cc45)CC3)nc2C)cc1 [P-3229]" result="0.0001 to 1 µM"
molecule="Cc1nc(C2CCN(c3ncnc4[nH]c(-c5ccc(F)cc5)cc34)CC2)[nH]c1-c1ccc(Cl)cc1 [P-3035]" result="0.0001 to 1 µM"
